target: recombinant soluble homotrimeric HA of A/California/4/09 (H1N1) (Influenza A virus A/California/04/2009 (H1N1)); assay: HA microarray, BCC supernatant; details: remark: other sources report otherwise
measured attribute: Trimeric HA Binding RLU (RLU)
Field format: number, assumed RLU, no unit text.

If you can, please state the reported Trimeric HA Binding RLU value of TCN-540 (5060_F05) (antibody, V domains shown) VH: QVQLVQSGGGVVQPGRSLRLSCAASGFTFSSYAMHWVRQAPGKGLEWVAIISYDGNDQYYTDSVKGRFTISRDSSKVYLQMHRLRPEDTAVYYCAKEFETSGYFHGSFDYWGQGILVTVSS VL: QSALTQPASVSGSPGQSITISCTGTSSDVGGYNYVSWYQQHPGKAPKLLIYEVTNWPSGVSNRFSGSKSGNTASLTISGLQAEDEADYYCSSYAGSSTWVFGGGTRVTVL .
57

Then this binder: TCN-536 (5095_N01) (antibody, V domains shown) VH: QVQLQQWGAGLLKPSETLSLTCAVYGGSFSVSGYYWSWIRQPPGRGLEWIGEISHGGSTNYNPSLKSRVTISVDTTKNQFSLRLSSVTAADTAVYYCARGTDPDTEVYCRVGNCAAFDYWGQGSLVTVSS VL: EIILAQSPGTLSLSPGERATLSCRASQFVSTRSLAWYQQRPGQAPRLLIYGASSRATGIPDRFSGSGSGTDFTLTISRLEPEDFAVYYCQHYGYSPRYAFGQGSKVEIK
151

Again, but for TCN-522 (3212_I12) (antibody, V domains shown) VH: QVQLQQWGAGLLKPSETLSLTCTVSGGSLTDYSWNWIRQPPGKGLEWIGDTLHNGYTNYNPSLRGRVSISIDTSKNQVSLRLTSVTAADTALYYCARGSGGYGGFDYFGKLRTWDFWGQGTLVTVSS VL: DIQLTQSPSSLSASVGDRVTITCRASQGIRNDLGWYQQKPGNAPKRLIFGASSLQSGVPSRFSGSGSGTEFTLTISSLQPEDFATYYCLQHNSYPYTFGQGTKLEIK
5020

Recorded values, source patent US20150104459A1.
